Form field: β1/β2 Ratio (one value per entry).
Test system: β1-adrenoceptor (right atrium)
Experiment: β1-adrenoceptor antagonism, spontaneously beating right atrium, pA2 vs L-isoproterenol
Settings: antilogarithm of difference between mean pA2 of right atrium and trachea
attribute_measured: β1/β2 Ratio

INSERT INTO measurements (compound, reported_result) VALUES
  ('CCOC(=O)C(CCc1ccccc1)NC(C)C(=O)N1CCCC1C(=O)OCc1ccc(OCC(O)CNC(C)(C)C)c(OC)c1 (stereo not drawn) [compound 7, Vanynolpril]', 1.9),
  ('CC(CCc1ccccc1)NCC(O)c1ccc(O)c(C(N)=O)c1 (stereo not drawn) [labetalol, reference compound]', 2.3),
  ('CCOC(=O)CCc1ccc(OCC(O)CNCCOc2ccccc2OC)cc1 (stereo not drawn) [compound 3, Propiodilol]', 1.9),
  ('COc1ccccc1OCCNCC(O)COc1ccc(CO)cc1OC (stereo not drawn) [compound 4, Vanydilol]', 1.6),
  ('CCOC(=O)C(CCc1ccc(OCC(O)CNCCOc2ccccc2OC)cc1)NC(C)C(=O)N1CCCC1C(=O)O (mixture of isomers) [compound 6, Labetapril]', 1.4),
  ('COc1cc(CO)ccc1OCC(O)CNC(C)(C)C (stereo not drawn) [compound 2, Vanynolol]', 2.3);

* * *

Listed here: items and their measured β1 pA2 value, Left atrium.
Target: β1-adrenoceptor (left atrium) (Rattus norvegicus)
Sequence (P18090 whole entry): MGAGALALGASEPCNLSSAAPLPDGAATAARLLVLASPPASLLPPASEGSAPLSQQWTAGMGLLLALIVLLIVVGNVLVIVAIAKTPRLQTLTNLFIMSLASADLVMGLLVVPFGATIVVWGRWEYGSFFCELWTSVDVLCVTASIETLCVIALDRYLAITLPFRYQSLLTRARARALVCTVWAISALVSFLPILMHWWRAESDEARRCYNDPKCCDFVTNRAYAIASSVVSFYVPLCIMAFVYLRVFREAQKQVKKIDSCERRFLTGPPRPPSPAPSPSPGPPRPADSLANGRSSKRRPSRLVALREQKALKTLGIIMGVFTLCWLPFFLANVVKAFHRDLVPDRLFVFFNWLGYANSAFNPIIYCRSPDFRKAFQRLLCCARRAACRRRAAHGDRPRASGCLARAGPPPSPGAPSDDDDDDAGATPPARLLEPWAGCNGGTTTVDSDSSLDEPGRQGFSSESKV
Test: β1-adrenoceptor antagonism, left atrium, pA2
Settings: Schild plot, mean ± SEM of six to eight experiments
attribute_measured: β1 pA2 value, Left atrium

INSERT INTO assay_data (compound, reported_result) VALUES
  ('CCOC(=O)C(CCc1ccccc1)NC(C)C(=O)N1CCCC1C(=O)OCc1ccc(OCC(O)CNC(C)(C)C)c(OC)c1 (centres unmarked) [compound 7, Vanynolpril]', 5.78),
  ('COc1ccccc1OCCNCC(O)COc1ccc(CO)cc1OC (centres unmarked) [compound 4, Vanydilol]', 6.76),
  ('COc1cc(CO)ccc1OCC(O)CNC(C)(C)C (centres unmarked) [compound 2, Vanynolol]', 6.84),
  ('CCOC(=O)CCc1ccc(OCC(O)CNCCOc2ccccc2OC)cc1 (centres unmarked) [compound 3, Propiodilol]', 6.78),
  ('CCOC(=O)C(CCc1ccc(OCC(O)CNCCOc2ccccc2OC)cc1)NC(C)C(=O)N1CCCC1C(=O)O (mixture of isomers) [compound 6, Labetapril]', 5.31);

* * *

Tested on: blood pressure of normotensive male Wistar rats
Assay: Heart rate and blood pressure in living rat (i.v., anaesthetized)
Format: in vivo
Conditions: maximal decrease, 2 mg/kg i.v.
Source text: Normotensive Male Wistar rats (NTRs), weighing 200˜300 g were abdominal anaesthetized with pentobarbital sodium. Tracheal was cannulated to maintain normal respiration. […] The right femoral artery was also inserted with polyethylene, and a 3-way stopcock was used tool, where one end was connected to heparin solution to prevent embolism. […] Through an amplifier, a recorder recorded the overall and average arterial pressure; heart rate to evaluate the effect of drug on blood pressure and heart rate. […]
Mark condition met for Decrease of blood pressure under 60 mmHg, condition not met if at or over.

INSERT INTO results (compound, assigned_category) VALUES
  ('CCOC(=O)CCc1ccc(OCC(O)CNCCOc2ccccc2OC)cc1 (centres unmarked) [compound 3, Propiodilol]', 'condition met'),
  ('COc1cc(CO)ccc1OCC(O)CNC(C)(C)C (centres unmarked) [compound 2, Vanynolol]', 'condition not met'),
  ('CCOC(=O)C(CCc1ccccc1)NC(C)C(=O)N1CCCC1C(=O)OCc1ccc(OCC(O)CNC(C)(C)C)c(OC)c1 (centres unmarked) [compound 7, Vanynolpril]', 'condition met'),
  ('COc1ccccc1OCCNCC(O)COc1ccc(CO)cc1OC (centres unmarked) [compound 4, Vanydilol]', 'condition not met'),
  ('CCOC(=O)C(CCc1ccc(OCC(O)CNCCOc2ccccc2OC)cc1)NC(C)C(=O)N1CCCC1C(=O)O (mixture of isomers) [compound 6, Labetapril]', 'condition not met');

Reference for the values: patent US20030040485A1
